# ASSAY OVERVIEW: Lethal dose after the intraperitoneal injection in a group of 10 mice
# Assay type: toxicity, organism-based
# STATED CONDITIONS: mouse, in vivo, ip
OBSERVABLE: LD50 (mg/kg)
Numbers only, in mg/kg.

Reference set, count: 2
molecule=COc1cc2c(c(OC)c1O)-c1ccc(SC)c(=O)cc1[C@@H](NC(C)=O)CC2 unit_label=mg/kg test_value=68.1
molecule=CCOCC(=O)N[C@H]1CCc2cc(OC)c(OC)c(OC)c2-c2ccc(SC)c(=O)cc21 unit_label=mg/kg test_value=5.1

Continue with the next compound.
q: For the compound shown here, CCCCOC(=O)N[C@H]1CCc2cc(OC)c(OC)c(OC)c2-c2ccc(SC)c(=O)cc21 , give the reported LD50.
a: 81
